Test system: E. coli
Format: cell-based
experimentalContext: E.coli 177, Table 2
No end group written: not given here.
A collection of sequences and their measured MIC
The response must be a number in µg/mL with no trailing unit.

Please review the entries below; each comes with its answer.
>>> quantitativereadout("SFKWPYKQIKKLWA [SEQ ID NO:22, SFKWPYKQIKKLWA]")
13.3
>>> quantitativereadout("SFKWIYKQIKKLWA [SEQ ID NO:5, SFKWIYKQIKKLWA]")
2
>>> quantitativereadout("SFEWIYKQIKKLWAKKK [SEQ ID NO:7, SFEWIYKQIKKLWAKKK]")
3
>>> quantitativereadout("SFEWIKYQIKKLWA [SEQ ID NO:2, SFEWIKYQIKKLWA]")
19
>>> quantitativereadout("SFEWIYKQIKKLWAK [SEQ ID NO:6, SFEWIYKQIKKLWAK]")
4

Let me know recorded MIC for SFKWIYKQPKKLWAKKK [SEQ ID NO:23, SFKWIYKQPKKLWAKKK] , thanks.
16

Let me know recorded MIC for SFEWIYKQIKKLWA [SEQ ID NO:12, SFEWIYKQIKKLWA] , thanks.
5

Let me know recorded MIC for SFEWIYKQIWKLKRGLA [SEQ ID NO:3, SFEWIYKQIWKLKRGLA] , thanks.
5

Let me know recorded MIC for SFKWIYKQPKKLWA [SEQ ID NO:21, SFKWIYKQPKKLWA] , thanks.
53.3

meta.source: patent US10273272B2
